- target.system: Link_TSG6 (Homo sapiens)
- Construct: made in house
- Sequence (P98066 36-129 limits assumed): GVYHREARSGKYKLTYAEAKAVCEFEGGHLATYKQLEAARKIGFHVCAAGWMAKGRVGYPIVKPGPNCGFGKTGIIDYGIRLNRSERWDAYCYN
- procedure.text: ITC of HA oligosaccharides binding to Link_TSG6
- cond: Table 6; relative to unmodified oligosaccharide of the same length, by ITC
Quick list: % Binding affinity Link_TSG6 per entry.
assay.readout: % Binding affinity Link_TSG6 (%)

INSERT INTO results (molecule, assay_readout, unit_tag, reported_measurement) VALUES
  ('CC(=O)N[C@H]1[C@H](O[C@H]2[C@H](O)[C@@H](O)[C@H](O[C@H]3[C@H](O)[C@@H](CO)O[C@@H](O[C@H]4[C@H](O)[C@@H](O)[C@H](O[C@@H]([C@H](O)[C@H](O)CO)[C@H](CNc5cc[nH]n5)NC(C)=O)O[C@@H]4C(=O)O)[C@@H]3NC(C)=O)O[C@@H]2C(=O)O)O[C@H](CO)[C@@H](O)[C@@H]1O[C@@H]1O[C@H](C(=O)O)[C@@H](O)[C@H](O)[C@H]1O', '% Binding affinity Link_TSG6', '%', 49),
  ('CC(=O)N[C@H]1[C@H](O[C@H]2[C@H](O)[C@@H](O)[C@H](O[C@H]3[C@H](O)[C@@H](CO)O[C@@H](O[C@H]4[C@H](O)[C@@H](O)[C@H](O[C@H]5[C@H](O)[C@@H](CO)O[C@@H](O[C@H]6[C@H](O)[C@@H](O)[C@H](O[C@H]7[C@H](O)[C@@H](CO)OC(O)[C@@H]7NC(C)=O)O[C@@H]6C(=O)O)[C@@H]5NC(C)=O)O[C@@H]4C(=O)O)[C@@H]3NC(C)=O)O[C@@H]2C(=O)O)O[C@H](CO)[C@@H](O)[C@@H]1O[C@@H]1O[C@H](C(=O)O)[C@@H](O)[C@H](O)[C@H]1O (some centres unmarked) [HA8^AN, reference compound]', '% Binding affinity Link_TSG6', '%', 100),
  ('CC(=O)N[C@H]1[C@H](O[C@H]2[C@H](O)[C@@H](O)[C@H](O[C@H]3[C@H](O)[C@@H](CO)O[C@@H](O[C@H]4[C@H](O)[C@@H](O)[C@H](O[C@H]5[C@H](O)[C@@H](CO)OC(O)[C@@H]5NC(C)=O)O[C@@H]4C(=O)O)[C@@H]3NC(C)=O)O[C@@H]2C(=O)O)O[C@H](CO)[C@@H](O)[C@@H]1O[C@@H]1O[C@H](C(=O)O)[C@@H](O)[C@H](O)[C@H]1O (some centres unmarked) [HA6^AN, reference compound]', '% Binding affinity Link_TSG6', '%', 100),
  ('CC(=O)N[C@H]1[C@H](O[C@H]2[C@H](O)[C@@H](O)[C@H](O[C@H]3[C@H](O)[C@@H](CO)O[C@@H](O[C@H]4[C@H](O)[C@@H](O)[C@H](O[C@@H]([C@H](O)[C@H](O)CO)[C@H](CNc5cccc6c5CCC6)NC(C)=O)O[C@@H]4C(=O)O)[C@@H]3NC(C)=O)O[C@@H]2C(=O)O)O[C@H](CO)[C@@H](O)[C@@H]1O[C@@H]1O[C@H](C(=O)O)[C@@H](O)[C@H](O)[C@H]1O', '% Binding affinity Link_TSG6', '%', 77),
  ('CC(=O)N[C@H]1[C@H](O[C@H]2[C@H](O)[C@@H](O)[C@H](O[C@H]3[C@H](O)[C@@H](CO)O[C@@H](O[C@H]4[C@H](O)[C@@H](O)[C@H](O[C@H]5[C@H](O)[C@@H](CO)O[C@@H](O[C@H]6[C@H](O)[C@@H](O)[C@H](O[C@@H]([C@H](O)[C@H](O)CO)[C@H](CNc7cccc8c7CCC8)NC(C)=O)O[C@@H]6C(=O)O)[C@@H]5NC(C)=O)O[C@@H]4C(=O)O)[C@@H]3NC(C)=O)O[C@@H]2C(=O)O)O[C@H](CO)[C@@H](O)[C@@H]1O[C@@H]1O[C@H](C(=O)O)[C@@H](O)[C@H](O)[C@H]1O', '% Binding affinity Link_TSG6', '%', 141);
